Hey, just so you know, these numbers are from patent EP4585616A1.

Documented pEC50 across a set of binders
Target: T1, Extracellular domain of human ROR1 protein (ROR1-ECD) (human, UniProt Q01973 30-403)
T1 construct: Expressed in HEK293T cells; also called human ROR1-ECD; purified human ROR1 protein extracellular segment
T1 sequence (Q01973 other isoform, or with tags, fused parts or gaps): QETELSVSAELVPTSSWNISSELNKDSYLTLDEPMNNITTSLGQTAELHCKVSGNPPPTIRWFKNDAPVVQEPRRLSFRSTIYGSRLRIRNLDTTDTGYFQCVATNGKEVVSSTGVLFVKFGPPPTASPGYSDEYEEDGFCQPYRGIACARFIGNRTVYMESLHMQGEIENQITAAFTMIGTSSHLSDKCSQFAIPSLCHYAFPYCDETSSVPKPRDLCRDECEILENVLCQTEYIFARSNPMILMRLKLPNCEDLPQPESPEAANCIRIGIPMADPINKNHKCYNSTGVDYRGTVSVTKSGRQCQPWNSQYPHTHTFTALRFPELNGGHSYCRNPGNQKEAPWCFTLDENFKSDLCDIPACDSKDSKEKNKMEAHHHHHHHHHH
Assay: ELISA, purified ROR1-ECD
Please express pEC50 as -log10 of the molar concentration.

Sample answers from the record:
[
  {
    "BINDER": "mAb006 (antibody, IgG2b, V domains shown, Mouse monoclonal antibody, IgG2b/k) VH: EVQLQQSGPELVKPGASLKMSCKASGYTFPDYNIHWVKQSHGKSLEWIGYINPNNGGTTYNQKFKGKATLTVSKSSSTAYMELRSLTSEDSAVYSCARRGYGSSYAMDYWAQGTSVTVSS VL: DVLMTQSPLSLPVSLGDQASISCRSSHIIVHTNGNTYLEWYLQKPGQSPKLLIYKVSNRFSGVPDRFSGSGSGTDFTLKISRVEAEDLGVYYCFQGSRVPYTFGGGTKLEIK",
    "pEC50": 10.23
  },
  {
    "BINDER": "mAb009 (antibody, IgG2b, V domains shown, Mouse monoclonal antibody, IgG2b/k) VH: EVQLQQSGPELVKPGASLKLSCKASGYTFPDYNIHWVKQSHGKSLEWIGYINPNNGNTNYNQKFEGKATLTVSKSSSTAYMELRSLTSDDSAVYSCARRGYGSSYAMDFWGQGTSVTVSS VL: DVLMTQTPLSLPVSLGNQASISCRSSHIIVHTNGNTYLEWYLQKPGQSPKLLIYKVSNRFSGVPDRFSGSGSGTDFTLKISRVEAEDLGVYYCFQGSRVPYTFGGGTKLEIK",
    "pEC50": 10.21
  },
  {
    "BINDER": "mAb001 (antibody, IgG2b, V domains shown, Mouse monoclonal antibody, IgG2b/k) VH: EVRLQQSGPVLVKPGASVKMSCKASGYTFTDYNLHWVKQSHRQSLEWIGYINPNHDGTSYNQKFQGKATLTVDRSSSTAYMEFRSLTSEDSAVYYCARRVRTGTGLDDWGQGTTLTVSS VL: DVLMTQSPLSLPVSLGDQASISCRSSHNIVHTNGNTYLEWYLQKPGQSPKLLIYKVSNRFSGVPDRFSGSGSGTYFTLTISRVEAEDLGVYYCFQGSRFPYTFGGGTKLEIK",
    "pEC50": 10.31
  },
  {
    "BINDER": "mAb008 (antibody, IgG2b, V domains shown, Mouse monoclonal antibody, IgG2b/k) VH: EVQLQQSGPELVKPGASVKMSCKASEYTFTDYNMHWVKQSHGKSLEWIGYINPNNGGTTYNQKFKGKATLTVNKSSSTAYMELRSLTSDDSAVYYCARRGYGSGYAMDYWGQGASVTVSS VL: DVLLTQTPLSLPVSLGDRASISCTSSQSIVHTNGNTYLEWYLQNPGQSPKLLIYKVSNRFSGVPDRFSGSGSGTDFTLKISRVEAEDLGVYYCFQGSLFPYTFGGGTKLEIK",
    "pEC50": 10.28
  },
  {
    "BINDER": "mAb005 (antibody, IgG2b, V domains shown, Mouse monoclonal antibody, IgG2b/k) VH: EVQLVESGGGLVKPGGSLKLSCAASGFTFNSYAMSWVRQTPEKRLEWVATISDGGSYTYYPDNEKGRFTISRDNAKNNLYLQMSHLKSEDTAIYYCVRGGYYYNLYAMDYWGQGTSVTVSS VL: DIVLTQSPASLAVSLGQRAIISCKASQSVSFPGTSLMHWYQQKPGQQPKLLIYRASNLEAGVPTRFSGSGSRTDFTLNIHPVEEDDTATYYCQQSREYPWTFGGGTQLEIK",
    "pEC50": 10.37
  }
]

Then this binder:
Param item = mAb003 (antibody, IgG2c, V domains shown, Mouse monoclonal antibody, IgG2c/k) VH: EVQLVESGGGLVKPGGSLKLSCAASGFTFSSYAMSWVRQTPEKRLEWVATISDGGSYTYYPDSVKGRFTISRDNAKNNLYLQMSHLKSEDTDMYYCVRGGYYYNLYAMDYWGQGTSVTVSS VL: DIVLTQSPASLAVSLGQRAIISCKASQSVSFAGTSLMHWYQQKPGQQPKLLIYRASNLEAGVPTRFSGSGSRADFTLNIHPVEEDDAATYYCQQSGEYPWTFGGGTKLEIK ; retrieve measured pEC50.
10.64
